tested on: Rat2 fibroblasts stably transformed with a plasmid containing a CMV promotor controlled v-Src/Hu c-Src fusion gene; assay: Anchorage Independent Src-transformed Fibroblast Proliferation Assay; conditions: Rattus norvegicus, Rat2, 120 h, read-out: anch-indep src-tx fib IC50, suspension growth, MTS on Day 5
Listed below: IC50 values for each entry.

- smiles_structure: "COc1cc(Nc2c(C#N)cnc3cc(-c4ccc(C5OCCO5)o4)ccc23)c(Cl)cc1Cl"
  readout_qualifier: "="
  IC50 / µM: 0.2
- smiles_structure: "COc1cc(Nc2c(C#N)cnc3cc(-c4ccc(N5CCOCC5)cc4)ccc23)c(Cl)cc1Cl"
  readout_qualifier: "="
  IC50 / µM: 0.11
- smiles_structure: "COc1cc(Nc2c(C#N)cnc3cc(-c4ccc(C5OCCO5)s4)ccc23)c(Cl)cc1Cl"
  readout_qualifier: "="
  IC50 / µM: 0.42
- smiles_structure: "COc1cc(Nc2c(C#N)cnc3cc(-c4ccc5ccccc5c4)ccc23)c(Cl)cc1Cl"
  readout_qualifier: "="
  IC50 / µM: 6.9
- smiles_structure: "COc1ccc(C#Cc2ccc3c(Nc4cc(OC)c(Cl)cc4Cl)c(C#N)cnc3c2)cc1"
  readout_qualifier: ">"
  IC50 / µM: 10
- smiles_structure: "COc1cc(Nc2c(C#N)cnc3cc(C#CCO)ccc23)c(Cl)cc1Cl"
  readout_qualifier: ">"
  IC50 / µM: 10
- smiles_structure: "COc1cc(Nc2c(C#N)cnc3cc(-c4cccc5ccccc45)ccc23)c(Cl)cc1Cl"
  readout_qualifier: ">"
  IC50 / µM: 10
- smiles_structure: "COc1cc(Nc2c(C#N)cnc3cc(-c4ccc(CCl)cc4)ccc23)c(Cl)cc1Cl"
  readout_qualifier: "="
  IC50 / µM: 7.5
